target: human TIM-3 coupled to Fc (human, UniProt Q8TDQ0 22-200); experiment: SPR; crude periplasmic extract
measured-endpoint: koff (s⁻¹)
State the answer as a number, implicitly in s⁻¹.

Some solved entries appear below for comparison.
binder	measured-endpoint	test-value
anti-TIM-3 antibody clone 1F4 (antibody, V domains shown) VH: QVQLQQWGAGLLKPSETLSLTCAVYGGSFSGYYWSWIRQPPGKGLEWIGEINHSGSTNYNPSLKSRVTISVDTSKNQFSLKLSSVTAADTAVYYCARGYVAGYDYWGQGTLVTVSS VL: QSVLTQPPSVSAAPGQKVTISCSGSSSNIGNNYVSWYQQLPGTAPKLLIYGNNWRPSGIPDRFSGSKSGTSATLGITGLQTGDEADYYCDSWDAALSAGVFGGGTKLTVL	koff	0.00029
anti-TIM-3 antibody clone 2G6 (antibody, V domains shown) VH: QVQLQQWGAGLLKPSETLSLTCAVYGGSFSGYYWSWIRQPPGKGLEWIGEINHSGSTNYNPSLKSRVTISVDTSKNQFSLKLSSVTAADTAVYYCARGYVAGFDSWGQGTLVTVSS VL: QSVLTQPPSVSAAPGQKVTISCSGSSSNIGNNYVSWYQQLPGTAPKLLIYGNNWRPSGIPDRFSGSKSGTSATLGITGLQTGDEADYYCDSWDSSDSSGVFGGGTKLTVL	koff	0.00022

Next binder, koff to be filled in.
// returns reported koff for input anti-TIM-3 antibody clone 1B9 (antibody, V domains shown) VH: QVQLQQWGAGLLKPSETLSLTCAVYGGSFSGYYWSWIRQPPGKGLEWIGEINHSGSTNYNPSLKSRVTISVDTSKNQFSLKLSSVTAADTAVYYCARGYVAGSDAWGQGTLVTVSS VL: QSVLTQPPSVSAAPGQKVTISCSGSSSNIGNNYVSWYQQLPGTAPKLLIYGNNWRPSGIPDRFSGSKSGTSATLGITGLQTGDEADYYCEAWDYYVAAGYFGGGTKLTVL 2.8e-05

FYI, the data here is from patent US20200055935A1.
